Biological target: GLP-1 receptor
Format: cell-based
Details: CHO/GLP-1R, 30 minutes; GLP-1 released from ABP-LK-GLP; read-out: cAMP production EC50
pEC50: −log10 of the molar value.
Let's look at some sequences and their measured pEC50.

>  <construct.sequence>
PLPHSHRAHSLPPFNPRGP HAEGTFTSDVSSYLEGQAAKEFIAWLVKGRG [DP6.2]

>  <study.target>
GLP-1 receptor

>  <pEC50>
7.64

$$$$
>  <construct.sequence>
LPHSHRAHSLPPFNPRPA HAEGTFTSDVSSYLEGQAAKEFIAWLVKGRG [PA6.2]

>  <study.target>
GLP-1 receptor

>  <pEC50>
7.64

$$$$
>  <construct.sequence>
LPHSHRAHSLPPFNPRPP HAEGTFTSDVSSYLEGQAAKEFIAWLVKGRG [PP6.2]

>  <study.target>
GLP-1 receptor

>  <pEC50>
7.68

$$$$
>  <construct.sequence>
PSSLLHWTHKIPALFNPRGS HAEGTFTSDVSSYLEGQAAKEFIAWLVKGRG [DP8.3]

>  <study.target>
GLP-1 receptor

>  <pEC50>
7.64

$$$$
>  <construct.sequence>
PNICLPRWGCLWDFNPRGA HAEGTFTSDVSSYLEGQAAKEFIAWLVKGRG [DP4.1]

>  <study.target>
GLP-1 receptor

>  <pEC50>
7.72

$$$$
>  <construct.sequence>
PDICLPRWGCLWEFNPRGA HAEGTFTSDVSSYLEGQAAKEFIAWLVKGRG [DP3.1]

>  <study.target>
GLP-1 receptor

>  <pEC50>
7.64

$$$$
